Each entry below carries its reported pIC50.
test system: recombinant human liver glycogen phosphorylase (HLGPa) (Homo sapiens)
Construct: made in house; host or cells: Sf9 insect cells (unpurified cell lysate used as enzyme solution)
Sequence (P06737 whole entry): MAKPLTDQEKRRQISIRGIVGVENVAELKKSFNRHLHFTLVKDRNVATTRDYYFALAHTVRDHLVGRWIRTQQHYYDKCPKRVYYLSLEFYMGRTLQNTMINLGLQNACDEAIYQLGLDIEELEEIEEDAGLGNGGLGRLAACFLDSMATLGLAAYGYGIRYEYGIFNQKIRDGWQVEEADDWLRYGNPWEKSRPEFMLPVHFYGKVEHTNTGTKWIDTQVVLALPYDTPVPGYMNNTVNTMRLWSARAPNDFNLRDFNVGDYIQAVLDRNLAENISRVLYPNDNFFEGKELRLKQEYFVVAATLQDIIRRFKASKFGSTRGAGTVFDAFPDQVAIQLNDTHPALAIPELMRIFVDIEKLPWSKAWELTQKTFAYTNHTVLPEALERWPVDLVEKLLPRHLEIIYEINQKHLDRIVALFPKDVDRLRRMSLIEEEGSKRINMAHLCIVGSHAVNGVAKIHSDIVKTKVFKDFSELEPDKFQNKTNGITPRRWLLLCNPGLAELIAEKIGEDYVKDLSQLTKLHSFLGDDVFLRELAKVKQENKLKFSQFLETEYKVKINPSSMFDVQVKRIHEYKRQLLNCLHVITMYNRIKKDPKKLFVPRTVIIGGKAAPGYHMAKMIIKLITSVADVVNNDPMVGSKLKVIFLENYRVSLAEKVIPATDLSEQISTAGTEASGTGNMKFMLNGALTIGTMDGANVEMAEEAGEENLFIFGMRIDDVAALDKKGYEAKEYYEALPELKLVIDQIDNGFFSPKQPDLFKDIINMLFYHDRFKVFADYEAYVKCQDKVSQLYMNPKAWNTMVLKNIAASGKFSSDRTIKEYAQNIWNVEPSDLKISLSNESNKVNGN
assay procedure: Measurement of liver glycogen phosphorylase activity (enzyme inhibitory activity against HLGPa)
Format: biochemical
condition context: Sf9 cell lysate expressing recombinant enzyme; reverse reaction (glycogen synthesis from G1-P), phosphate by malachite green, 60 min room temperature
pIC50 is defined as minus the log10 of a concentration measured in mol/L.

Illustrative cases are given below, each with its answer.
# mol smiles, pIC50
rows = [
    ("Cc1ccc(C(=O)NNC(=O)c2cc3cc(Cl)ccc3[nH]2)c(N)c1", 6.55),
    ("Nc1ccc2[nH]c(=O)n(NC(=O)c3cc4cc(Cl)ccc4[nH]3)c(=O)c2c1", 6.96),
    ("Nc1ccccc1C(=O)NNC(=O)c1cc2ccc(Cl)cc2[nH]1", 6.09),
    ("O=C(NN1C(=O)CN(c2ccccc2)C1=O)c1cc2cc(Cl)ccc2[nH]1", 7.64),
]

Form field: pIC50 recorded for O=C(NNC(=O)c1ccco1)c1cc2cc(Cl)ccc2[nH]1 with recombinant human liver glycogen phosphorylase (HLGPa) (Homo sapiens) (enter value)
7.74

Likewise for Cc1ccc2[nH]c(C(=O)NNC(=O)c3ccccc3)cc2c1 ?
7.07

Now this one: O=C(NNC(=O)c1ccc(Cl)nc1Cl)c1cc2cc(Cl)ccc2[nH]1
7.08

Please do the same for O=C(NNC(=O)c1cc2cc(Cl)ccc2[nH]1)c1ccc([N+](=O)[O-])cc1 as well.
6.10

Also need O=C(NNC(=O)c1cc2cc(Cl)ccc2[nH]1)c1ccncc1 , thanks.
6.59

What would you report for Cc1ccc(N2CCC(=O)N(NC(=O)c3cc4cc(Cl)ccc4[nH]3)C2=O)cc1 ?
6.36

Next entry: COc1ccccc1C(=O)NNC(=O)c1cc2cc(Cl)ccc2[nH]1
6.92

Also need Cc1cccc(C(=O)NNC(=O)c2cc3cc(Cl)ccc3[nH]2)c1 , thanks.
7.00

Would you kindly repeat that for O=C(NNC(=O)c1ccccc1O)c1cc2cc(Cl)ccc2[nH]1 ?
7.43

Same lookup for O=C(NNC(=O)c1cc2cc(Cl)ccc2[nH]1)c1cccc(C(F)(F)F)c1 , please.
6.62

For O=C(NN1C(=O)CCN(c2ccccc2)C1=O)c1cc2cc(Cl)ccc2[nH]1 then?
7.11

* * *

test system: recombinant human liver glycogen phosphorylase (HLGPa) (Homo sapiens)
assay procedure: Measurement of liver glycogen phosphorylase activity (enzyme inhibitory activity against HLGPa)
condition context: Sf9 cell lysate expressing recombinant enzyme; reverse reaction (glycogen synthesis from G1-P), phosphate by malachite green, 60 min room temperature
endpoint name: pIC50
Notebook: values listed as pIC50 are -log10 of the concentration (mol/L).

Guide cases for pIC50, answers given:
# compound, value observed
data = [
    ("O=C(NNC(=O)c1ccccc1-c1ccccc1)c1cc2cc(Cl)ccc2[nH]1", 7.33),
    ("Cc1ccc(C(=N)NNC(=O)c2cc3cc(Cl)ccc3[nH]2)n1C [Example 6-27, methanesulfonate]", 6.77),
    ("Nc1ccc(Cl)cc1C(=O)NNC(=O)c1cc2cc(Cl)ccc2[nH]1", 7.52),
    ("Cc1ccccc1C(=O)NNC(=O)c1cc2cc(Cl)ccc2[nH]1", 7.14),
]

# input for lookup
// returns reported pIC50 for input Cc1ccc2[nH]c(C(=O)Nn3c(=O)[nH]c4cc(F)ccc4c3=O)cc2c1
7.77
